Origin of measurements: the antibiotic and cytotoxicity screens of Wong et al. (2023)

system: HepG2; experiment: cytotoxicity call (relative viability < 0.9); details: 10 µM
The whole screen tested about 39,000 compounds, of which about 3,300 (8.5%) were called active. Many of the other results were omitted from the sample, so actives are more common in it than they were.
Hi! Could you answer with just one of these? YES = active, NO = inactive

smilesText: C[C@@H]1CCCCO[C@@H](CN(C)C(=O)Cc2ccccc2)[C@H](C)CN([C@H](C)CO)C(=O)c2cc(NC(=O)Nc3ccc(F)cc3)ccc2O1
group: YES
//
smilesText: CCS(=O)(=O)Nc1ccc2c(c1)C(=O)N(C)C[C@H](OC)[C@@H](C)CN(C(=O)c1ccc3c(c1)OCO3)[C@@H](C)CO2
group: NO

Query :: Recorded call for C[C@@H]1CN([C@H](C)CO)C(=O)c2cc(NC(=O)NC3CCCCC3)ccc2O[C@@H](C)CCCCO[C@@H]1CN(C)C(=O)NC1CCCCC1 ?
Result :: NO
